procedure-text: suppressors of polyglutamine aggregation in yeast, 75Q-TubH (AID 1616)
particulars: S. cerevisiae 75Q-TubH polyglutamine aggregation suppression; stronger effect = higher value
Measured aggregation suppression score accompanies every entry in the list below.
Reply with just the number.

Task item: Look up aggregation suppression score of CN[C@@H]1C(OC2[C@H](O[C@H]3[C@H](O)[C@@H](O)[C@H](N=C(N)N)[C@@H](O)[C@@H]3N=C(N)N)OC(C)[C@]2(O)CO)OC(CO)C(O)C1O (some centres undefined) and report it.
Reply: 1.17

Task item: Look up aggregation suppression score of Cc1onc(-c2ccccc2)c1C(=O)NC1C(=O)N2[C@@H]1SC(C)(C)[C@@H]2C(=O)O (some centres undefined) and report it.
Reply: 1.34

Task item: Look up aggregation suppression score of CCCCC(=O)O[C@H]1CCC2C3CCc4cc(O)ccc4C3CC[C@@]21C (some centres undefined) and report it.
Reply: 0.271

Continuing:
Task item: Look up aggregation suppression score of CCC(=O)OCC(=O)C1(OC(=O)CC)C(C)CC2C3CCC4=CC(=O)C=CC4(C)C3(Cl)C(O)CC21C (centres undefined) and report it.
Reply: 1.25

* * *

Measured log fold change Tl+ flux accompanies every entry in the list below.
System: F380Y/beta4
procedure-text: modulators of BK channel variants, profiling panel, selectivity assay, cell-based, U2OS BacMam, thallium flux, beta subunits (AID 1259406);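 also: initial slope of Thallos dye fluorescence rise after thallium is added; log ratio against the mean of 0.3% DMSO vehicle wells on the same plate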
particulars: at 30 µM
Activity calls are given as the source filed them.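 Rule for the calls: active = thallium flux through the channel raised or lowered by more than 3 SD from vehicle-only wells, actives on both sides; inactive = the rest.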

Task item: Look up log fold change Tl+ flux of CCOC(=O)C1CCCN(C(=O)Nc2c(-c3ccccc3)noc2C)C1 (centres undefined) and report it.
Reply: 0.0159 (inactive)

Task item: Look up log fold change Tl+ flux of `C=CC1=C(C(=O)O)N2C(=O)[C@@H](NC(=O)C(=NOCC(=O)O)c3csc(N)n3)[C@H]2SC1` and report it.
Reply: 0.0293 (inactive)

Continuing:
Task item: Look up log fold change Tl+ flux of `Cc1c(C)c(C)c(C(=O)c2ccccc2C(=O)NN)c(C)c1C` and report it.
Reply: 0.0586 (inactive)

Task item: Look up log fold change Tl+ flux of `Cc1noc(C=Cc2sccc2C2OCCO2)c1[N+](=O)[O-]` and report it.
Reply: -0.0687 (inactive)

Task item: Look up log fold change Tl+ flux of `COc1ccc(C[C@H](C)NC[C@@H](O)c2ccc(O)c(NC=O)c2)cc1` and report it.
Reply: -0.0214 (inactive)

Task item: Look up log fold change Tl+ flux of CC1c2cccc(O)c2C(O)=C2C(=O)C3(O)C(O)=C(C(N)=O)C(=O)C(N(C)C)C3C(O)C21 (centres undefined) and report it.
Reply: -0.028 (inactive)

* * *

Measured inhibition accompanies every entry in the list below.
procedure-text: HepG2 cytotoxicity, primary screen, cytotoxicity control for P. falciparum antimalarial project, cell-based, ATP luminescence (AID 2303);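 also: 0% = DMSO wells and 100% = digitonin-killed cells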
particulars: HepG2 viability, 24-48 h, at 10 µM, stronger effect = higher value
Answer with a number only, understood to be in %.

Task item: Look up inhibition of `Cc1cc(OCCCNc2nc(NCCc3ccc(O)cc3)nc(N3CCNCC3)n2)c(Cl)c(C)c1Cl` and report it.
Reply: 54

Task item: Look up inhibition of `CCCN(CCC)CCCNc1ccc(C(=O)Nc2ccc(C(C)C)cc2)cc1[N+](=O)[O-]` and report it.
Reply: 17

Task item: Look up inhibition of `N=C(N)c1cc(Cl)cc(NC(=O)Nc2cc(Cl)cc(C(=N)N)c2)c1` and report it.
Reply: 4

* * *

Tested on: R275C
procedure-text: modulators of BK channel variants, profiling panel, selectivity assay, cell-based, U2OS BacMam, thallium flux, beta subunits (AID 1259406);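 also: initial slope of Thallos dye fluorescence rise after thallium is added; log ratio against the mean of 0.3% DMSO vehicle wells on the same plate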
particulars: at 30 µM
Calls of active or inactive are those of the source.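 Rule for the calls: active = thallium flux through the channel raised or lowered by more than 3 SD from vehicle-only wells, actives on both sides; inactive = the rest.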
endpoint-label: log fold change Tl+ flux

Task item: Look up log fold change Tl+ flux of `O=C1c2c(O)cc(O)cc2O[C@H](c2ccc(O)c(O)c2)[C@H]1O` and report it.
Reply: -0.0716 (inactive)

Task item: Look up log fold change Tl+ flux of `CN(NC(=O)c1ccc(Cl)s1)c1cnn(-c2cc(Cl)cc(Cl)c2)c(=O)c1Cl` and report it.
Reply: -0.0148 (inactive)

Continuing:
Task item: Look up log fold change Tl+ flux of Cc1ccc(S(=O)(=O)N2Cc3ccccc3C(C)CC23CCCCC3)cc1 (stereo not given) and report it.
Reply: -0.0799 (active)

Task item: Look up log fold change Tl+ flux of `Cc1nn(Cc2nnn(CC(=O)NN=Cc3ccc(Cl)cc3)n2)c(C)c1Br` and report it.
Reply: 0.0224 (inactive)

Task item: Look up log fold change Tl+ flux of `CC(C)c1ccc2c(c1)c(SC(C)(C)C)c(CC(C)(C)C(=O)O)n2Cc1ccc(Cl)cc1` and report it.
Reply: 0.00647 (inactive)

Task item: Look up log fold change Tl+ flux of `O=C(CN1CCOCC1)Nc1ccccc1Sc1nccc(C(F)(F)F)n1` and report it.
Reply: -0.0101 (inactive)

Task item: Look up log fold change Tl+ flux of `Cc1onc(-c2ccccc2)c1N1C(=O)CCN(C(C)C)C1=O` and report it.
Reply: -0.0915 (active)

Task item: Look up log fold change Tl+ flux of Cc1onc(-c2ccccc2)c1C(=O)NC1C(=O)N2C1SC(C)(C)C2C(=O)O (stereo not given) and report it.
Reply: 0.00519 (inactive)

Task item: Look up log fold change Tl+ flux of `O=C(CNc1cc(C(F)(F)F)cc(C(F)(F)F)c1)c1ccc(Cl)cc1` and report it.
Reply: 0.0058 (inactive)

Task item: Look up log fold change Tl+ flux of CCOC(=O)CCSC1=NC(c2cccs2)C(C(=O)OCC)=C(C)N1 (stereo not given) and report it.
Reply: -0.0523 (inactive)

* * *

Measured normalised cell number accompanies every entry in the list below.
procedure-text: differential killing of epithelial or mesenchymal cells, primary screen, imaging, PC-3E GFP, TEM4-18 mCherry, co-culture (AID 1345086);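 also: cells exposed to compound for 72 h before imaging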
particulars: imaging cell counts, measured here: mesenchymal TEM4-18 mCherry cell survival, at 1 µM
Reply with just the number.

Task item: Look up normalised cell number of C[C@H]1C(=O)CCC2[C@]3(C)CC[C@@]4(C)C5CC(C)(C)CC[C@]5(C)CC[C@]4(C)C3CC[C@@]21C (stereo not given in full) and report it.
Reply: 1.13

Task item: Look up normalised cell number of `CN(C)CCOc1ccc(/C(=C(/CCCl)c2ccccc2)c2ccccc2)cc1` and report it.
Reply: 1.04

Task item: Look up normalised cell number of CC(C)c1c(O)ccc2c1CCC1C(C)(C)CCC[C@]21C (stereo not given in full) and report it.
Reply: 1.07

Task item: Look up normalised cell number of C=C1[C@@H](C)C2[C@H](Cc3c[nH]c4ccccc34)NC(=O)[C@]23C(=O)/C=C/C(=O)[C@H](O)/C(C)=C/[C@@H](C)C/C=C/[C@H]3[C@@H]1O (stereo not given in full) and report it.
Reply: 1.09

Task item: Look up normalised cell number of COC(=O)C[C@@H]1C2(C)C(=O)[C@@H](CC3=C4C=C(OC)O[C@@H](c5ccoc5)[C@]4(C)CCC32)[C@H](O)C1(C)C (stereo not given in full) and report it.
Reply: 1.12

Task item: Look up normalised cell number of `C=COCC(F)(F)F` and report it.
Reply: 0.96

Task item: Look up normalised cell number of `COC(=O)/C(=C1\OC(=O)C(c2ccccc2)=C1O)c1ccccc1` and report it.
Reply: 1.11

Task item: Look up normalised cell number of CC1(C)C2CC[C@]3(C)C(C(=O)C=C4[C@@H]5C[C@@](C)(C(=O)O)CC[C@]5(C)CC[C@]43C)[C@@]2(C)CC[C@@H]1O (stereo not given in full) and report it.
Reply: 0.89

Task item: Look up normalised cell number of `Nc1cc2ccccc2[nH]c1=O` and report it.
Reply: 1.04

Task item: Look up normalised cell number of `Cc1c(O)c(O)cc2oc3cc(O)cc(O)c3c(=O)c12` and report it.
Reply: 1.12

Continuing:
Task item: Look up normalised cell number of CC1CC(O)C2C=CC(CC(=O)O1)O2 (stereo not given) and report it.
Reply: 0.53

Task item: Look up normalised cell number of `C/C=C/c1cc2c(c(=O)o1)C(=O)[C@@H](O)[C@H](C)O2` and report it.
Reply: 0.92

Task item: Look up normalised cell number of CC(CC(=O)N1C(=O)OC[C@H]1c1ccccc1)N1CCSC1=S (stereo not given in full) and report it.
Reply: 1.08

Task item: Look up normalised cell number of CC(C)(C)NCC(O)COc1cccc2c1CCCC2=O (stereo not given) and report it.
Reply: 1.03

Task item: Look up normalised cell number of CCC(C)C(=O)O[C@H]1C[C@H](O)C=C2C=C[C@H](C)[C@H](CC[C@@H](O)C[C@@H](O)CC(=O)O)C21 (stereo not given in full) and report it.
Reply: 1.14
